// data source = patent US8501786B2

target_or_system: human β3 adrenergic receptor (Homo sapiens, UniProt P13945)
Construct: stably transfected with the cloned β-adrenergic receptor (β1, β2 or β3); expressed in transfected cells; host or cells: Chinese hamster ovary (CHO) cells, stably transfected
Sequence (P13945 whole entry): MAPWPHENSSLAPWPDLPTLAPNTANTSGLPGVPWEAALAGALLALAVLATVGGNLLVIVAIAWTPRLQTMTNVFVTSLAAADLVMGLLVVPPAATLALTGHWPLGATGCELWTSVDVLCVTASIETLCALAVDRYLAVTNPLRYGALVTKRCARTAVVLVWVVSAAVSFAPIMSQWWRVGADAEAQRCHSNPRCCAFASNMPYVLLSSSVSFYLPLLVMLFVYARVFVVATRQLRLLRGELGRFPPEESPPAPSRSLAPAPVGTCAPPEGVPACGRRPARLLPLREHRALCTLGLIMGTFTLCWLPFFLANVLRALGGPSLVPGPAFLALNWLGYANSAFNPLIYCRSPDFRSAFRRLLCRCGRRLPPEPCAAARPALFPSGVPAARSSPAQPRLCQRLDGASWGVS
experiment_notes: Functional assay: cAMP production (LANCE TR-FRET) in CHO cells stably transfected with cloned β3 adrenergic receptor
Format: cell-based
experimental_parameters: Table 2; cAMP production, CHO cells expressing human β3 AR; read-out: Human β3 functional
Form field: EC50 (one value per entry).

-- ask // EC50 lookup, key: CC1=NN(CC(=O)Nc2ccc(CC3CC[C@H]([C@H](O)c4cccnc4)N3)cc2)C(=O)C1C (stereo partly shown) [Example 69]
-- reply 11 to 100 nM

-- ask What would you report for O=C(Nc1ccc(CC2CC[C@H]([C@H](O)c3cccnc3)N2)cc1)c1ccccc1N1CCCC1 (stereo partly shown) [Example 37] ?
-- reply 101 to 1000 nM

-- ask # iterate: Cc1nc(CC(=O)Nc2ccc(CC3CC[C@H]([C@H](O)c4cccnc4)N3)cc2)c(C)s1 (stereo partly shown) [Example 10]
-- reply 11 to 100 nM

---
-- ask Please report the recorded EC50 for COc1cccc(N2CCC[C@H]2C(=O)Nc2ccc(CC3CC[C@H]([C@H](O)c4cccnc4)N3)cc2)c1 (stereo partly shown) [Example 31] .
-- reply 1 to 10 nM

-- ask Do the same for O=C(CN1CCOC1=O)Nc1ccc(CC2CC[C@H]([C@H](O)c3cccnc3)N2)cc1 (stereo partly shown) [Example 44] please
-- reply 11 to 100 nM

-- ask Further, for O=C(Cc1n[nH]c(-c2ccccc2)n1)Nc1ccc(CC2CC[C@H]([C@H](O)c3cccnc3)N2)cc1 (stereo partly shown) [Example 4] ?
-- reply 1 to 10 nM

-- ask Same for O=C(Cn1c(=O)[nH]c(=O)c2ccccc21)Nc1ccc(CC2CC[C@H]([C@H](O)c3cccnc3)N2)cc1 (stereo partly shown) [Example 57]
-- reply 1 to 10 nM
